TARGET_DESC: T1, recombinant human Ang2 carrier-free (R&D Systems, Cat#623-AN-025/CF) (human, UniProt O15123 19-496)
T1 construct: Bought recombinant protein; also called angiopoietin 2
T1 sequence: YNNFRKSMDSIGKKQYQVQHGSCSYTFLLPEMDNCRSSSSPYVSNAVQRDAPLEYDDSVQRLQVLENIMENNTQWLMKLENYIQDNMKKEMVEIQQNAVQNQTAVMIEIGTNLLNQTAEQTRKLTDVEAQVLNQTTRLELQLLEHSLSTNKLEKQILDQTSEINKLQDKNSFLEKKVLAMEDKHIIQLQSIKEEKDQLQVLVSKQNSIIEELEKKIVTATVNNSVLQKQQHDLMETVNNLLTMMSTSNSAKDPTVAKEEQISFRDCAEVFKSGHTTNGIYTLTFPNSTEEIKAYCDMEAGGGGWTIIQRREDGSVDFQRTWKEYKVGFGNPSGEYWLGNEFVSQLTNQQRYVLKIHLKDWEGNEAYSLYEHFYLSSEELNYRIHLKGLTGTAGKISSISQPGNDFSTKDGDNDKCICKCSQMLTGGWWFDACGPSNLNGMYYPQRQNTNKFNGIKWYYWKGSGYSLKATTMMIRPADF
TEST_METHOD_NOTES: SPR (BIAcore), Ang2 immobilised on CM5, peptide 25-1.56 µM, 1:1 Langmuir fit
So I've got a bunch of binders here, and I need their pKd values.
Answers are plain numbers, as −log10 of the molar value.

BINDER	pKd
Ac-QEELASILSKKAKLLNTLSRQSAALTNIERGLRGVR-NH2 (MW 4006.8) [CGEN-F9 (SEQ ID NO: 7)]	5.51

Continue with the binder presented below.
## Task # get_value(readout='pKd', item= Ac-ETFLSTNKLENQ-NH2 (MW 1464.7) [CGEN-A11 (SEQ ID NO: 10)] )
## Result 5.63
